Source: patent US20210388081A1

# System: SLAMF9 protein (UniProt Q96A28 19-236, limits assumed)
# Sequence (Q96A28 19-236 limits assumed): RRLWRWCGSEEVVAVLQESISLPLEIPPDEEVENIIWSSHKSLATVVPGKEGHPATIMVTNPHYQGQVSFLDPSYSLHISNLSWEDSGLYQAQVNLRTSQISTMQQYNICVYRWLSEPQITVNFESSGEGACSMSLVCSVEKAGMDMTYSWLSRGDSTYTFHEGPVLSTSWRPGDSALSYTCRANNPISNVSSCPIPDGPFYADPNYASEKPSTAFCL
# Test: phage clone on SLAMF9 protein
Property label: binding result

Please review the following examples before continuing.
[
  {
    "Binder": "ET200-030 (scFv, screened as phage clone; entry is VL-linker-VH-His tag-HA tag) scFv: QSVVTQPPSVSGAPGQRVTISCTGSSSNIGAGYDVNWYQQFPGTAPKLLIYGNSNRPSGVPDRFSGSKSGTSASLAITGLQAEDEADYYCQSYDSSLSGSYVFGTGTKVTVLGSRGGGGSGGGGSGGGGSLEMAQMQLVQSGAEVKKPGASVKVSCKASGYTLTELSMHWVRQAPGKGLEWMGGFDPEDGETIYAQKFQGRVTMTEDTSTDTAYMELSSLRSEDTAVYYCARMSSMYYDWGQGTLVTVSSTSGQAGQHHHHHHGAYPYDVPDYAS",
    "binding result": "no binding"
  },
  {
    "Binder": "ET200-101 (scFv, screened as phage clone; entry is VL-linker-VH-His tag-HA tag) scFv: QAVLTQPPSASGAPGQRVTVSCSGSNSNIGSNYVNWYQQFPGTAPKLLMYSSSQRPSGVPDRFSGSKSGTSASLAISGLHSEDEADYYCATWDDSLNAWVFGGGTKLTVLGSRGGGGSGGGGSGGGGSLEMAEVQLVQSGAEVRKPGASVKVSCKTSGYTFTWYAIHWVRQAPGQRLEWMGWINAGSGNTKYSQKFQGRVTLTRDTSASTAYMELSSLRSDDTAVYYCARPNNYGSGGDVFDIWGQGTMVTVSSTSGQAGQHHHHHHGAYPYDVPDYAS",
    "binding result": "no binding"
  },
  {
    "Binder": "ET200-031 (scFv, screened as phage clone; entry is VL-linker-VH-His tag-HA tag; also called ET200-31) scFv: SYVLTQPPSVSVAPGKTARITCGGNNIGSKSVHWYQQKPGQAPVLVIYYDSDRPSGIPERFSGSNSGNTATLTISRVEAGDEADYYCQVWDSSSDYVFGTGTKVTVLGSRGGGGSGGGGSGGGGSLEMAEVQLVETGGGLVKPGGSLRLSCAASGFTVSDYYMSWIRQAPGKGLEWISYISGSGNSIYYADSVKGRFTISRDNAKNSLDLQMTSLRAEDTAVYYCARSTKFDYWGQGTLVTVSSTSGQAGQHHHHHHGAYPYDVPDYAS",
    "binding result": "no binding"
  },
  {
    "Binder": "ET200-024 (scFv, screened as phage clone; entry is VL-linker-VH-His tag-HA tag) scFv: NFMLTQPHSVSESPGKTVTISCTGSSGSIASNYVQWYQQRPGSAPTTVIYEDNQRPSGVPDRFSGSIDSSSNSASLTISGLKTEDEADYYCQSYDSSNLWVFGGGTKLTVLGSRGGGGSGGGGSGGGGSLEMAQMQLVQSGAEVKKPGSSVKVSCKASGGTFSSYAISWVRQAPGQGLEWMGGIIPIFGTANYAQKFQGRVTITADESTSTAYMELSSLRSEDTAVYYCARYNYYYYDSWGQGTLVTVSSTSGQAGQHHHHHHGAYPYDVPDYAS",
    "binding result": "no binding"
  },
  {
    "Binder": "ET200-110 (scFv, screened as phage clone; entry is VL-linker-VH-His tag-HA tag) scFv: QSVLTQPPSASGTPGQRVTISCSGSSSNIGTNGVNWFQQFPGTAPKLLIYTNDQRPSGVPDRFSGSKSGTSASLAISGLQSADEADYYCAVWDHSLNGPVFGGGTKLTVLGSRGGGGSGGGGSGGGGSLEMAQVQLVQSGAEVKKPGSSVKVSCKASGGTFSSYAISWVRQAPGQGLEWMGGIIPIFGTANYAQKFQGRVTITADESTSTAYMELSSLRSEDTAVYYCARGAGFDAFDIWGQGTMVTVSSTSGQAGQHHHHHHGAYPYDVPDYAS",
    "binding result": "no binding"
  },
  {
    "Binder": "ET200-112 (scFv, screened as phage clone; entry is VL-linker-VH-His tag-HA tag) scFv: QAVLTQPPSASGTPGQRVTISCSGSSSNIGSNTVNWYQQLPGTAPKLLMYSNDQRPSGVPDRFSGSKSGTSASLAISGLQSEDEADYYCAAWDDSLNGYVFAAGTQLTVLSSRGGGGSGGGGSGGGGSLEMAQVQLQQWGAGLLKPSETLSLTCAVYGGSFSGYYWSWIRQPPGKGLEWIGEINHSGSTNYNPSLKSRVTISVDTSKNQFSLKLSSVTAADTAVYYCAREGLDAFDIWGQGTMVTVSSTSGQAGQHHHHHHGAYPYDVPDYAS",
    "binding result": "no binding"
  },
  {
    "Binder": "ET200-007 (scFv, screened as phage clone; entry is VL-linker-VH-His tag-HA tag) scFv: SYVLTQPLSVSVAPGKTARITCGGNNIGSKTVHWYQQKPGQAPVLVIYYDSDRPSGIPERFSGSNSGNTATLTISRVEAGDEADYYCQVWDSSSDHRVFGGGTKLTVLGSRGGGGSGGGGSGGGGSLEMAQVQLQESGPGLVKPSETLSLTCNVSGYSISSGYFWGWIRQPPGKGLEWIGSIYHSRSTYYNPSLKSRVTISVDTSKNQFSLKLNSVTAADTAVYYCARGYGYFDYWGQGTLVTVSSTSGQAGQHHHHHHGAYPYDVPDYAS",
    "binding result": "no binding"
  },
  {
    "Binder": "ET200-069 (scFv, screened as phage clone; entry is VL-linker-VH-His tag-HA tag; also called ET200-69) scFv: QSVVTQPPSASGTPGQRVTISCSGSSSNIGSNYVYWYQQLPGTAPKLLIYSNNQRPSGVPDRFSGSKSGTSASLAISGLRSEDEADYYCAAWDDSLSGYVFGTGTKLTVLGSRGGGGSGGGGSGGGGSLEMAQVQLQQWGAGLLKPSETLSLTCAVYGGSFSGYYWSWIRQPPGKGLEWIGEINHSGSTNYNPSLKSRVTISVDTSKNQFSLKLSSVTAADTAVYYCARLYEGGYHGWGSWLSSDSWGQGTLVTVSSTSGQAGQHHHHHHGAYPYDVPDYAS",
    "binding result": "no binding"
  }
]

Now look at this entry.
Query :: For ET200-022 (scFv, screened as phage clone; entry is VL-linker-VH-His tag-HA tag) scFv: QSVVTQPPSVSAAPGQKVTISCSGSSSNIGNNYVSWYQQLPGTAPKLLIYDNNKRPSGIPDRFSGSKSGTSATLGITGLQTGDEADYYCGTWDSSLGAPYVFGTGTKVTVLGSRGGGGSGGGGSGGGGSLEMAEVQLVQSWGGSEQPGRSLRLSCAASGFTFDDYAMHWVRQAPGKGLEWVSGISWNSGSIGYADSVKGRFTISRDNAKNSLYLQMNSLRAEDTAMYYCARYRQVGSAYDSWGQGTLVTVSSTSGQAGQHHHHHHGAYPYDVPDYAS , what is its reported binding result?
Result :: no binding
